# Tested on: SK-MEL-2 melanoma
# Measurement Description: NCI-60 one-dose screen, 48 h
# Measurement Context: 10 µM unless noted
This is part of a sample that, as a whole, favours compounds with a hit. Of some 83,000 tested, about 20% had one in any assay. Active and inactive are the calls of the source. Rule for the calls: active = growth percent below 10; inactive = the rest.
Respond with a class label; see label 1 for active, label 0 for inactive

Chemical Smiles: NCCCNc1nc2ccccc2c2c(=O)c3cc(F)cc(Cl)c3sc12
Measured On: SK-MEL-2 melanoma
Category: label 0
//
Chemical Smiles: Fc1cc(-c2nnc3n2NC(=Nc2ccc(Cl)cc2)CS3)c(Cl)cc1Cl
Measured On: SK-MEL-2 melanoma
Category: label 0
//
Chemical Smiles: Cc1cc2nc3cc(C)c(N)cc3[n+](-c3ccccc3)c2cc1N
Measured On: SK-MEL-2 melanoma
Category: label 0
//
Chemical Smiles: CCCCNc1nc(NN2C(=O)c3cccc4cccc(c34)C2=O)nc(-n2cnc3ccccc32)n1
Measured On: SK-MEL-2 melanoma
Category: label 0

**Q:** Entry COc1ccc(/C=C/c2c(C(=O)/C=C/c3ccc(C(F)(F)F)cc3)c(C)nc3ccccc23)cc1 : call = ?
**A:** label 1

**Q:** Entry O=C1CN(CCN2CC(=O)N(Cc3ccccc3)C(=O)C2)CC(=O)N1Cc1ccccc1 : call = ?
**A:** label 0

**Q:** Entry O=c1c2cc(F)ccc2sc2c(N3CCNCC3)nc3ccc(F)cc3c12 : call = ?
**A:** label 0

**Q:** Entry NCCCNc1nc2ccccc2c2c(=O)c3cc(OC(F)(F)F)ccc3sc12 : call = ?
**A:** label 0

**Q:** Entry O=c1ccc(N=Nc2ccc([N+](=O)[O-])cc2)ccc1O : call = ?
**A:** label 0

**Q:** Entry NC(=O)Nc1ccc2ncnc(Nc3ccc(Cl)cc3)c2c1 : call = ?
**A:** label 0

**Q:** Entry COc1ccc(/C=C(/C#N)n2nnc3cccc(F)c32)cc1 : call = ?
**A:** label 1

**Q:** Entry COc1c(B(O)O)cc(F)cc1-c1nc2ccc3[nH]ncc3c2c2c1CCCC2 : call = ?
**A:** label 0

**Q:** Entry O=C(CCCCCCSc1nc(-c2ccccc2)cc(-c2ccccc2)n1)NO : call = ?
**A:** label 0

----------
# Tested on: K-562 leukemia
# Measurement Description: NCI-60 one-dose screen, 48 h
# Measurement Context: 10 µM unless noted
Compounds without any hit were thinned out: in the full panel of roughly 83,000, 20% have a hit. The source made the active and inactive calls. How the source made its calls: active means growth percent below 10; inactive means the rest.
Respond with a class label; see yes (1) = active, no (0) = inactive

Please review the following examples before continuing.
Compound: C=C1C(=O)O[C@H]2[C@H]1CC/C(COC(=O)CSCC(=O)OC/C1=C/CC[C@@]3(C)O[C@H]3[C@H]3OC(=O)C(=C)[C@@H]3CC1)=C\CC[C@@]1(C)O[C@@H]21
Category: yes (1)

Compound: CCOC(=O)c1cnn2c3ccccc3n(S(=O)(=O)c3ccc(OC)cc3)c12
Category: no (0)

Compound: c1ccc2c(c1)Nc1ccncc1S2
Category: no (0)

**Q:** Entry COc1cc(/C=C2\C(=O)Nc3ccc(Br)cc32)cc(OC)c1OC : call = ?
**A:** no (0)

**Q:** Entry CS(=O)(=O)Nc1cc(-c2ccc3ncnc(Nc4cccc(Cl)c4F)c3c2)cnc1Cl : call = ?
**A:** no (0)

**Q:** Entry N#Cc1c(Nc2cccc(Cl)c2)sc(C(=O)c2cc3cc(Cl)ccc3o2)c1N : call = ?
**A:** no (0)

----------
# Tested on: SF-295 CNS
# Measurement Description: NCI-60 one-dose screen, 48 h (100 = growth as untreated, 0 = no growth, -100 = all killed)
# Measurement Context: 10 µM unless noted
This is part of a sample that, as a whole, favours compounds with a hit. Of some 83,000 tested, about 20% had one in any assay.
Below, each entry is listed alongside its reported growth.
State the answer as a number, implicitly in %.

Examples with their reported growth follow.
Compound: Cc1ccc2sc3c(NCCN)nc4ccccc4c3c(=O)c2c1
Endpoint Value: 105

Compound: Cn1cc(-c2cc3ncnc(Nc4ccc(CC(=O)Nc5cc(C(C)(C)C)on5)cc4)c3s2)cn1
Endpoint Value: 49.9

Compound: COc1cc(/C=C2\C(=O)Nc3ccc(Br)cc32)cc(OC)c1OC
Endpoint Value: 68.6

Compound: CCN(CC)CCCNc1nc2ccccc2c2c(=O)c3cc(Cl)ccc3sc12
Endpoint Value: 104

**Q:** Entry CCOC(=O)CC1C(COC(=O)NC)OC(n2cnc3c(NC(=O)Nc4ccccc4)ncnc32)C1O[Si](C)(C)C(C)(C)C (stereo not given) , system SF-295 CNS: what growth was measured?
**A:** 66.1

**Q:** Entry CCOC(=O)c1sc2ncc(-c3ccc(OC)cc3)n2c1C , system SF-295 CNS: what growth was measured?
**A:** 96.4

**Q:** Entry COc1ccccc1/C=C1\Oc2cc(OCCN3CCC(Cc4ccccc4)CC3)ccc2C1=O , system SF-295 CNS: what growth was measured?
**A:** 96.6

**Q:** Entry CCS(=O)(=O)c1ncnc2nc[nH]c12 , system SF-295 CNS: what growth was measured?
**A:** 99.8

**Q:** Entry COc1ccc(NC2=C(Br)C(=O)C(C)=C(C)C2=O)cc1 , system SF-295 CNS: what growth was measured?
**A:** 98.9

**Q:** Entry COc1ccc2nc(NCCCNCCO)c3sc4ccc(F)cc4c(=O)c3c2c1 , system SF-295 CNS: what growth was measured?
**A:** 84.6

----------
# Test system: BT-549 breast
# Measurement Description: NCI-60 one-dose screen, 48 h (100 = growth as untreated, 0 = no growth, -100 = all killed)
# Measurement Context: 10 µM unless noted
# Method: Growth inhibition of the BT-549 human tumor cell line is measured as a screen for anti-cancer activity. Cells are grown in 96 well plates and exposed to the test compound for 48 hours. Compounds are tested at a single concentration, which is 10^-5 M for most compounds. The reported endpoint is percent growth (GI% or GIPRCNT), where numbers from 0 - 100% represent growth inhibition, and numbers from -100% - 0 represent cell death. For example, a value of 40 represents 60% growth inhibition. […]
The panel holds about 83,000 compounds, 20% with a hit somewhere; the sample as a whole holds those more often.
Output true (1) for growth not less than 70%; output false (0) otherwise.

Please review the following examples before continuing.
Compound: COc1ccc(/C=C(/C#N)n2nnc3cccc(F)c32)cc1
Measured On: BT-549 breast
Category: false (0)
--
Compound: CCCC1CCC(O)(C(C)(O)C(=O)NC2C(=O)N3NCCCC3C(=O)N(O)C(C)C(=O)N3NCCCC3C(=O)N3NCC(O)CC3C(=O)NC(C)C(=O)OC2C(C)C)OC1CC (stereo not drawn)
Measured On: BT-549 breast
Category: false (0)
--
Compound: COc1ccc(-c2c(C(=O)NS(C)(=O)=O)n(Cc3cccc(C(F)(F)F)c3)c3ccccc23)cc1
Measured On: BT-549 breast
Category: true (1)
--
Compound: Nc1ccc(Sc2ccc([N+](=O)[O-])c3nonc23)cc1
Measured On: BT-549 breast
Category: true (1)
--
Compound: COc1ccccc1/C=C1\Oc2cc(OCCN3CCC(Cc4ccccc4)CC3)ccc2C1=O
Measured On: BT-549 breast
Category: true (1)
--
Compound: CS(=O)(=O)N(c1cc(-c2ccc3ncnc(Nc4ccc(F)c(Cl)c4)c3c2)cnc1Cl)S(C)(=O)=O
Measured On: BT-549 breast
Category: false (0)

**Q:** Answer whether growth of CCc1nnc(NC(=O)c2nnn(-c3ccccc3)c2-c2ccco2)s1 is greater than or equal to 70%.
**A:** true (1)

**Q:** Answer whether growth of CC(=O)N1N=C(c2ccc(Nc3nc(Nc4ccc(F)cc4)nc(Nc4ccc(Cl)cc4)n3)cc2)CC1c1ccc(Cl)cc1 (stereo not drawn) is greater than or equal to 70%.
**A:** true (1)

**Q:** Answer whether growth of O=C(Nc1ccc(I)cc1F)c1cc(I)ccc1O is greater than or equal to 70%.
**A:** false (0)

**Q:** Answer whether growth of CN1CCN(c2ccc(-c3cc4c(Nc5ccc(F)c(Cl)c5)ncnn4c3)cc2)CC1 is greater than or equal to 70%.
**A:** true (1)

**Q:** Answer whether growth of CNC(=O)c1cc(-n2ccc3cc(NC(=O)c4ccc(N5CCOCC5)c(C(F)(F)F)c4)ccc32)ccn1 is greater than or equal to 70%.
**A:** false (0)

**Q:** Answer whether growth of COc1cccc(-c2nc(-c3ccc(NC(=O)c4ccccc4)cc3)[nH]c2-c2ccnc(Br)c2)c1 is greater than or equal to 70%.
**A:** false (0)

**Q:** Answer whether growth of Cc1nc2ccccc2c(/C=C/c2ccc(Cl)cc2)c1C(=O)/C=C/c1ccc(C(F)(F)F)cc1 is greater than or equal to 70%.
**A:** false (0)

**Q:** Answer whether growth of CCOc1cccc(NC2=C(Br)C(=O)C(C)=C(C)C2=O)c1 is greater than or equal to 70%.
**A:** true (1)

**Q:** Answer whether growth of c1ccc(-c2nc3nonc3nc2-c2ccccc2)cc1 is greater than or equal to 70%.
**A:** false (0)

**Q:** Answer whether growth of CC1(C)C2CC1C1(/C=N\Nc3ccccc3)C(C2)C(C#N)(C#N)C1(C#N)C#N (stereo not drawn) is greater than or equal to 70%.
**A:** true (1)

**Q:** Answer whether growth of COc1ccc(OC)c(/C=C/C(=O)N/N=C/c2ccc(Cl)cc2)c1 is greater than or equal to 70%.
**A:** false (0)

**Q:** Answer whether growth of O=C(Nc1ccc(Br)cc1F)c1cc(Br)ccc1O is greater than or equal to 70%.
**A:** false (0)
